# Protocol: Solubility in water (saturated solutions, HPLC)
# Format: physicochemical
# Test Context: water at 25 °C; in terms of the active substance (ibuprofen)
Quantity Measured: Solubility in Water (g IBU·dm^−3)

Completed entries (count: 5):
>  <Compound>
CC(C)Cc1ccc(C(C)C(=O)O)cc1 (racemic) [IBU, reference compound]

>  <Reading Unit>
g IBU·dm^−3

>  <Solubility in Water>
0.075

$$$$
>  <Compound>
CC(C)Cc1ccc(C(C)C(=O)O)cc1.CCCOC(=O)C(N)CCC(=O)O (stereo not shown) [[Glu(OPr)][IBU]]

>  <Reading Unit>
g IBU·dm^−3

>  <Solubility in Water>
0.120

$$$$
>  <Compound>
CC(C)Cc1ccc(C(C)C(=O)O)cc1.CCCCCOC(=O)C(N)CCC(=O)O (stereo not shown) [[Glu(OPent)][IBU]]

>  <Reading Unit>
g IBU·dm^−3

>  <Solubility in Water>
0.101

$$$$
>  <Compound>
CC(C)Cc1ccc(C(C)C(=O)O)cc1.CCCCOC(=O)C(N)CCC(=O)O (stereo not shown) [[Glu(OBu)][IBU]]

>  <Reading Unit>
g IBU·dm^−3

>  <Solubility in Water>
0.109

$$$$
>  <Compound>
CC(C)Cc1ccc(C(C)C(=O)O)cc1.CCC(C)OC(=O)C(N)CCC(=O)O (stereo not shown) [[Glu(Osec-Bu)][IBU]]

>  <Reading Unit>
g IBU·dm^−3

>  <Solubility in Water>
0.093

$$$$

1. CC(C)Cc1ccc(C(C)C(=O)O)cc1.CCOC(=O)C(N)CCC(=O)O (stereo not shown) [[Glu(OEt)][IBU]]
2. CC(C)Cc1ccc(C(C)C(=O)O)cc1.CC(C)OC(=O)C(N)CCC(=O)O (stereo not shown) [[Glu(OiPr)][IBU]]
Q: Solubility in Water comparison. Which is larger, 1 or 2 ? Your answer should be the label of the entry you select.
A: 2

====

# Protocol: Thermogravimetric analysis (thermal stability)
# Type: physicochemical
Quantity Measured: Tonset, the onset temperature of the thermal degradation (°C)

>  <Compound>
CC(C)Cc1ccc(C(C)C(=O)O)cc1.CCCOC(=O)C(N)CCC(=O)O (stereo not drawn) [[Glu(OPr)][IBU]]

>  <Experimental Result>
199.7

$$$$
>  <Compound>
CC(C)Cc1ccc(C(C)C(=O)O)cc1.CCOC(=O)C(N)CCC(=O)O (stereo not drawn) [[Glu(OEt)][IBU]]

>  <Experimental Result>
194.2

$$$$
>  <Compound>
CC(C)Cc1ccc(C(C)C(=O)O)cc1.CCCCOC(=O)C(N)CCC(=O)O (stereo not drawn) [[Glu(OBu)][IBU]]

>  <Experimental Result>
206.8

$$$$
>  <Compound>
CC(C)Cc1ccc(C(C)C(=O)O)cc1.CCCCCOC(=O)C(N)CCC(=O)O (stereo not drawn) [[Glu(OPent)][IBU]]

>  <Experimental Result>
206.9

$$$$
>  <Compound>
CC(C)Cc1ccc(C(C)C(=O)O)cc1.CCC(C)OC(=O)C(N)CCC(=O)O (stereo not drawn) [[Glu(Osec-Bu)][IBU]]

>  <Experimental Result>
204.2

$$$$
>  <Compound>
CC(C)Cc1ccc(C(C)C(=O)O)cc1.CC(C)OC(=O)C(N)CCC(=O)O (stereo not drawn) [[Glu(OiPr)][IBU]]

>  <Experimental Result>
222.9

$$$$

====

# Protocol: Solubility in water (saturated solutions, HPLC)
# Assay type: physicochemical
# Test Context: water at 25 °C; as compound
Quantity Measured: Solubility in Water (g·dm^−3)

>  <Compound>
CC(C)Cc1ccc(C(C)C(=O)O)cc1.CCOC(=O)C(N)CCC(=O)O (stereo not drawn) [[Glu(OEt)][IBU]]

>  <Quantity Measured>
Solubility in Water

>  <Experimental Result>
0.185

$$$$
>  <Compound>
CC(C)Cc1ccc(C(C)C(=O)O)cc1.CCCCOC(=O)C(N)CCC(=O)O (stereo not drawn) [[Glu(OBu)][IBU]]

>  <Quantity Measured>
Solubility in Water

>  <Experimental Result>
0.217

$$$$
>  <Compound>
CC(C)Cc1ccc(C(C)C(=O)O)cc1.CCC(C)OC(=O)C(N)CCC(=O)O (stereo not drawn) [[Glu(Osec-Bu)][IBU]]

>  <Quantity Measured>
Solubility in Water

>  <Experimental Result>
0.185

$$$$
>  <Compound>
CC(C)Cc1ccc(C(C)C(=O)O)cc1.CCCCCOC(=O)C(N)CCC(=O)O (stereo not drawn) [[Glu(OPent)][IBU]]

>  <Quantity Measured>
Solubility in Water

>  <Experimental Result>
0.208

$$$$

A. CC(C)Cc1ccc(C(C)C(=O)O)cc1.CCCOC(=O)C(N)CCC(=O)O (stereo not drawn) [[Glu(OPr)][IBU]]
B. CC(C)Cc1ccc(C(C)C(=O)O)cc1.CC(C)OC(=O)C(N)CCC(=O)O (stereo not drawn) [[Glu(OiPr)][IBU]]
Q: Pick the one with the larger Solubility in Water: A vs B Identify your pick by its label.
A: B
(B: 0.390 g·dm^−3, A: 0.230 g·dm^−3)

====

# Protocol: Partition coefficient n-octanol/water (shake-flask, HPLC)
# Format: physicochemical
# Test Context: 25 °C
# Description: For L-glutamic acid alkyl ester ibuprofenates, the partition coefficient was determined using n-octanol/water extraction. […] The concentration of the compound was determined in the aqueous layer using the HPLC method (standard curve method). The partition coefficient log P was calculated based on Equation (3):(3) logP=logcoct−logcw where: • cw and coct are the concentrations (mg·dm^−3) of the solute in the aqueous and octanol layers. […]
Quantity Measured: logP
Give the figure only, with no unit attached.

Input CC(C)Cc1ccc(C(C)C(=O)O)cc1 (racemic) [IBU, reference compound] . Output logP: 3.37

====

# Protocol: Permeability of the active substance through pig skin, Franz diffusion chambers, in vitro
# Test Context: 1% IBU in 70% ethanol, 37 °C, n = 3
Quantity Measured: Jss, steady-state flux (µg IBU·cm^−2·h^−1)

A selection of reference data follows.
>  <Molecule>
CC(C)Cc1ccc(C(C)C(=O)O)cc1.CCOC(=O)C(N)CCC(=O)O (stereo not drawn) [[Glu(OEt)][IBU]]

>  <Jss, steady-state flux (µg IBU·cm^−2·h^−1)>
30.855

$$$$
>  <Molecule>
CC(C)Cc1ccc(C(C)C(=O)O)cc1.CC(C)OC(=O)C(N)CCC(=O)O (stereo not drawn) [[Glu(OiPr)][IBU]]

>  <Jss, steady-state flux (µg IBU·cm^−2·h^−1)>
23.298

$$$$
>  <Molecule>
CC(C)Cc1ccc(C(C)C(=O)O)cc1 (racemic) [IBU, reference compound]

>  <Jss, steady-state flux (µg IBU·cm^−2·h^−1)>
26.539

$$$$
>  <Molecule>
CC(C)Cc1ccc(C(C)C(=O)O)cc1.CCCOC(=O)C(N)CCC(=O)O (stereo not drawn) [[Glu(OPr)][IBU]]

>  <Jss, steady-state flux (µg IBU·cm^−2·h^−1)>
26.451

$$$$

I. CC(C)Cc1ccc(C(C)C(=O)O)cc1.CCCCOC(=O)C(N)CCC(=O)O (stereo not drawn) [[Glu(OBu)][IBU]]
II. CC(C)Cc1ccc(C(C)C(=O)O)cc1.CCC(C)OC(=O)C(N)CCC(=O)O (stereo not drawn) [[Glu(Osec-Bu)][IBU]]
Q: Pick one: I or II . Which one has the lower reported Jss, steady-state flux? Record your answer as the label of the chosen record.
A: II
(II: 22.296 µg IBU·cm^−2·h^−1, I: 32.282 µg IBU·cm^−2·h^−1)

====

# Protocol: Thermogravimetric analysis (thermal stability)
# Type: physicochemical
# Test Context: TG, oxidizing environment, 10 °C·min^−1
Where a name gives a salt, the structure may show the parent alone.
Quantity Measured: Tonset, the onset temperature of the thermal degradation (°C)

>  <Molecule>
CCCCCOC(=O)CCC(N)C(=O)OCCCCC (stereo not drawn) [[Glu(OPent)2][HCl]]

>  <Experimental Result>
169.5

$$$$
>  <Molecule>
CCOC(=O)CCC(N)C(=O)OCC (stereo not drawn) [[Glu(OEt)2][HCl]]

>  <Experimental Result>
168.3

$$$$
>  <Molecule>
CC(C)OC(=O)CCC(N)C(=O)OC(C)C (stereo not drawn) [[Glu(OiPr)2][HCl]]

>  <Experimental Result>
174.4

$$$$
>  <Molecule>
CCCOC(=O)CCC(N)C(=O)OCCC (stereo not drawn) [[Glu(Opr)2][HCl]]

>  <Experimental Result>
170.5

$$$$
>  <Molecule>
CCC(C)OC(=O)CCC(N)C(=O)OC(C)CC (stereo not drawn) [[Glu(Osec-Bu)2][HCl]]

>  <Experimental Result>
181.5

$$$$
>  <Molecule>
CCCCOC(=O)CCC(N)C(=O)OCCCC (stereo not drawn) [[Glu(OBu)2][HCl]]

>  <Experimental Result>
172.8

$$$$
